Consider the following compounds and their measured Percentage inhibition of ligand binding, Adrenergic α1B (0.1 μM) readings.
# Subject of test: rat adrenergic α1B receptor (Rattus norvegicus, UniProt P15823)
# Construct: rat adrenergic α1B receptor obtained from Wistar Rat liver; from tissue; host or cells: Wistar rat liver
# Sequence (P15823 whole entry): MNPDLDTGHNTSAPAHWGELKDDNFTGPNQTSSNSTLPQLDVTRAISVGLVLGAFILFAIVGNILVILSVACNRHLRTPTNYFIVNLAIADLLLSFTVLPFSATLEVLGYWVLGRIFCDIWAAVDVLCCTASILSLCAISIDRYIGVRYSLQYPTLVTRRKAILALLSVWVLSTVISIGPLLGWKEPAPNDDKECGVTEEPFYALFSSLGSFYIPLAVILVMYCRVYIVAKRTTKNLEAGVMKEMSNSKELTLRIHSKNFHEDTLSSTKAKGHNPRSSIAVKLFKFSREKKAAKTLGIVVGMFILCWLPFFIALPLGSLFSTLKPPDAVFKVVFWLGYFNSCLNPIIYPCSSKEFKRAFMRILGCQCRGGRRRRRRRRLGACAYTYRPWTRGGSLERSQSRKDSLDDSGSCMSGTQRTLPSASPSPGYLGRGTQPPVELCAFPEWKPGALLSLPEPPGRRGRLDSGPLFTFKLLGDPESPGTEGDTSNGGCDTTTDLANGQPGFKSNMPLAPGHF
# Protocol details: Radioligand binding, adrenergic α1B ([3H]Prazosin)
# Condition parameters: compound at 0.1 μM; [3H]Prazosin; repeat datapoints each shown; 0.1 µM
Quick reminder: number only, in %, skip the unit.

Below: 6 compounds and their reported Percentage inhibition of ligand binding, Adrenergic α1B (0.1 μM).
| Compound | Value measured |
| --- | --- |
| Cc1ccc2c(c1)c1c(n2CC(O)c2ccc(C)nc2)CCN2CCCC12 (single isomer, unassigned) [198b] | 84 |
| Cc1ccc(C(C)(O)Cn2c3c(c4cc(Cl)ccc42)CN(C)CC3)cn1 (single isomer, unassigned) [93b] | 1 |
| CC1Cc2c(c3cc(Cl)ccc3n2CC(C)(O)c2cccnc2)CN1C (single isomer, unassigned) [II-147d] | 10 |
| Cc1ccc2c(c1)c1c(n2CC(CC(O)C(C)(C)C)c2ccncc2)CCN(C)C1 (single isomer, unassigned) [II-227b] | 8 |
| Cc1cnc2c(c1)c1c(n2CC(O)c2ccncc2)CCN2CCCC12 (single isomer, unassigned) [IV-209d] | 54 |
| Cc1ccc2c(c1)c1c(n2CC(C)(O)c2cccnc2)CC(C)N(C)C1 (single isomer, unassigned) [II-146d] | 13 |

Task: State, for rat adrenergic α1B receptor (Rattus norvegicus, UniProt P15823), measured Percentage inhibition of ligand binding, Adrenergic α1B (0.1 μM) of the compound listed here: CN1CCc2c(c3cc(Cl)cnc3n2CC(C)(O)c2ccc(C(F)(F)F)nc2)C1 (single isomer, unassigned) [II-109a]
Output: 27
